- System: UniProt:Q96RI0
- Sequence (Q96RI0 18-385): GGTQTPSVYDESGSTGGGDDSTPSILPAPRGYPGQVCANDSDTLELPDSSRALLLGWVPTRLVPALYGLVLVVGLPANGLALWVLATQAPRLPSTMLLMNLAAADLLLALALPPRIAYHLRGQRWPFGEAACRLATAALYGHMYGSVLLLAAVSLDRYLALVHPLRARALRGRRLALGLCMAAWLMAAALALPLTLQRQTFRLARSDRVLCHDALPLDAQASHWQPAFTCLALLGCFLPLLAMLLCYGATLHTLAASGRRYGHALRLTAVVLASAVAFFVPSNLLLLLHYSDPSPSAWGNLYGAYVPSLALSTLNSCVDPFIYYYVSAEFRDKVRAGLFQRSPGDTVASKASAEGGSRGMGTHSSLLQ
- Protocol Summary: FLIPR assay in PAR4-expressing HEK293 cells (PAR4 antagonist activity)
- Assay type: cell-based
- Run Conditions: inhibition of H-Ala-Phe(4-F)-Pro-Gly-Trp-Leu-Val-Lys-Asn-Gly-NH2-induced intracellular calcium mobilization
- Source text: The FLIPR assay is an exemplary in vitro assay for measuring the activity of the PAR4 antagonists of the present invention. In this assay, intracellular calcium mobilization is induced in PAR4 expressing cells by a PAR4 agonist and calcium mobilization is monitored. See, e.g., Example A. HEK293 cells stably expressing PAR4 were generated by a standard method of transfection of human PAR4 (F2R23) cDNA expression vector and selected based on PAR4 protein expression or mRNA expression. […]
Decision: EC50 beneath 2 nM gives class 1; EC50 meeting or exceeding 2 nM gives class 0.

Request: I wonder whether COc1cc(OCc2cccc(NC(=O)c3sc(C)nc3C)c2)c2cc(-c3cn4nc(OC)sc4n3)oc2c1 [Example 50] has EC50 below 2 nM. Can you tell?
Result: class 0

Request: I wonder whether COc1cc(OCc2cccc(N(C)C(=O)c3sc(C)nc3C)c2)c2cc(-c3cn4nc(OC)sc4n3)oc2c1 [Example 93] has EC50 below 2 nM. Can you tell?
Result: class 0

Request: I wonder whether COc1cc(OCc2cccc(NC(=O)C(C)C)c2)c2cc(-c3cn4nc(OC)sc4n3)oc2c1 [Example 136] has EC50 below 2 nM. Can you tell?
Result: class 0

Request: I wonder whether COc1cc(OCc2cccc(NC(=O)c3ccc(C#N)cc3)c2)c2cc(-c3cn4nc(OC)sc4n3)oc2c1 [Example 36] has EC50 below 2 nM. Can you tell?
Result: class 0

Request: I wonder whether COc1cc(OCc2cccc(NC(=O)c3cccc(Cl)c3Cl)c2)c2cc(-c3cn4nc(OC)sc4n3)oc2c1 [Example 156] has EC50 below 2 nM. Can you tell?
Result: class 1

Request: I wonder whether COc1cc(OCc2cccc(NC(=O)c3cc(Cl)nc(Cl)c3)c2)c2cc(-c3cn4nc(OC)sc4n3)oc2c1 [Example 55] has EC50 below 2 nM. Can you tell?
Result: class 1

Request: I wonder whether COc1ccc(C(=O)Nc2cccc(COc3cc(OC)cc4oc(-c5cn6nc(OC)sc6n5)cc34)c2)cc1 [Example 18] has EC50 below 2 nM. Can you tell?
Result: class 1
